- assay_info: soluble on expression in E. coli; label from the status in PepcDB or PDB records
parameter: soluble on expression in E. coli

MSTQGEIRVGPSHQAKLPDLQPFPSPDGDTVTQHEELVWMPGVNDCDLLMYLRAARSMAAFAGMCDGGSTEDGCVAASRDDTTLNALNTLHESGYDAGKALQRLVKKPVPKLIEKCWTEDEVKRFVKGLRQYGKNFFRIRKELLPNKETGELITFYYYWKKTPEAALEHHHHHH = soluble
MSCFRGDVDFCPECGNILPLPSRLNTITCPRCSFKISVQDFTSQVIKSSVMFNPLDQSNVAVGSAEDAELKGPVIDRKCSRCNKEGMVYHTRQMRSADEGQTVFFTCIHCRFQEKEDS = not soluble
AIATLLDWMNVCSVEIPKRIIAKHFSACQHTNQEVFSLDDSLAGLDECLHCEDSQQNHRKVSPGQTLRIVMIGKTGVGKSAVGNTILNREVFESKPSANSITQSCRKASVYDTREIYVIDTPGILDTSKEKDIIKREIVKCIKVSAPGPHAFLLVIQIGRFTAEEQRAVQALQELFGEDASNYMIVLFTHGDLLKGQTIDQYVREGHIELRRVIQSCGGRYAVFNNTMKDRTQVKTLIDKIDQMVAVNGGECYTQEMFREAEEKIRQQKEKREIAELQEYQFSFLGILENRVTLFQRILLEGYREQFAIESGIYK = soluble
MAHHHHHHMGTLEAGQQGPGSMSKLTVVASPLAPEAVGAYSQAIICNGMVYCSGQIGLDRKTGDFAGKTIEEQSKQVMTNLKYVLEEAGSSMDKVVKTTCLLADIKDFGVFNGIYAEAFGNHKPARACFAAAALPKGALVEVECIATL = soluble

# query: soluble on expression in E. coli of entry FECGVNSLDEWLKRRALANQHSGASRTFVVADHDSRVYGYYAMAAGAVSHQAATSGVRRNMPDPVPVMVLARLAVDQRAQGIKLGAALLQDAVNRVVNVSHNVGVRALLVHALDDRAKQFYAHYGFKESPQHPM
not soluble

# input sequence: ENVYGYLMKYTNLVTGWQYRFFVLNNEAGLLEYFVNEQSRNQKPRGTLQLAGAVISPSDEDSHTFTVNAASGEQYKLRATDAKERQHWVSRLQICTQHHTEAIGKNN ; wanted: its soluble on expression in E. coli
soluble

Form field: reported soluble on expression in E. coli of MFDPKMLSVEFRNGITDEKPIEGRKYTLTHNDDTGELFLTVALAYAYDKINSSARDEVFGVWKRGNNRFILKIYLYVDGNQGREEAIKRDRIFRKELPLALAAIAYGDRKFLDDNDDLLNSNIIVRFISAYEELNKIENYGTLKDYLEHHHHHH
soluble

Given the entry MVLTLDLADPAQPEHVFIVEDSRGATELKLYKSHYTIGKADSCDIRLHSIYASRQHATLVRFLTENGEVRYRLIDGDPETSRRSANGTYVNNRSITECDLKHYDQILFGALEHHHHHH , report its measured soluble on expression in E. coli.
not soluble

Fill in the blank: the reported soluble on expression in E. coli of MLSSTAIAKWQKINDVDYTWGPFKIYNISLFTETGEYKPQERPIMLTLRYNKPVDGRDFAISVAKSWANLGIALSEQNVVIERLRKILPDLKSGDALSYIALSDHGYFVLNDQVIEQEFNHEFNDAMLAIWLDPKVELSHKLITKKIEGAAQAVHYSAEYREKVTSSSEDLVSQEQRQQNLPNGTPSEATSLTEQEEREDDEKAPAISDAENDLRHSIDESAPQIVEPEQEIIPNVDPMPDYQLPVS is ____.
not soluble

Values from the DeepSol protein solubility set
